# Test system: Hep3B
# Assay Comment: relative cell viability (CellTiter-Glo), compound alone (fraction); higher = more viable cells (less growth inhibition)
# Condition Notes: cabozantinib 0 µM; 4 days
The full ranking holds about 1,900 compounds; the median of “relative cell viability (CellTiter-Glo), compound alone” is about 1, and the lowest 2% start at about 0.16. This excerpt belongs to a sample that is enriched for the lowest values.
// returns 0.0 unless relative cell viability is strictly below 1, in which case 1.0

For orientation, consider the following solved cases.
INSERT INTO measurements (molecule, class) VALUES
  ('Fc1ccc2[nH]ccc2c1-c1nc(N2CCOCC2)c2sc(CN3CCN(CC4CC4)CC3)cc2n1', 1.0),
  ('COc1cc(OC)c2c(=O)[nH]c(-c3cc(C)c(OCCO)c(C)c3)nc2c1', 1.0),
  ('CC(=O)Nc1ccc(C(=O)Nc2ccccc2N)cc1 [CI994 (Tacedinaline)]', 0.0);

Input: Quick check: does O=c1cc(CN2CCOCC2)occ1OCCCCCSc1ccnc2cc(C(F)(F)F)ccc12 have relative cell viability under 1?
Output: 0.0

Input: Please let me know if CC1=C(C(=O)Nc2cc3cn[nH]c3cc2F)C(c2ccc(C(F)(F)F)cc2)CC(=O)N1 (centres undefined) shows relative cell viability below 1.
Output: 0.0

Input: Report whether reported relative cell viability is lower than 1 (strictly) for O=C(N/N=C/c1ccc(O)c(O)c1)c1cc2ccccc2cc1O [Dynasore]
Output: 1.0

Input: Check if relative cell viability falls below 1 for Cn1cc(CNCC2CCN(c3ncc(C(=O)NO)cn3)CC2)c2ccccc21 .
Output: 1.0

Input: Check if relative cell viability falls below 1 for C[C@H]1Oc2cc(cnc2N)-c2c(nn(C)c2C#N)CN(C)C(=O)c2ccc(F)cc21 .
Output: 0.0

Input: Hello, is relative cell viability of the following molecule strictly smaller than 1? COc1cc(Nc2ncc(F)c(Nc3ccc4c(n3)N(COP(=O)(O)O)C(=O)C(C)(C)O4)n2)cc(OC)c1OC [Fostamatinib (R788)]
Output: 1.0

----------
# Test system: Hep3B
# Assay Comment: relative cell viability (CellTiter-Glo), compound alone (fraction); higher = more viable cells (less growth inhibition)
# Condition Notes: cabozantinib 0 µM; 4 days
In all, about 1,900 compounds were measured (“relative cell viability (CellTiter-Glo), compound alone”: median about 1, lowest 2% from about 0.16 on). The full list was thinned out, with the lowest values kept by preference.
Readout Kind: relative cell viability
// return just the number, without any unit appended

INSERT INTO measurements (compound, test_value) VALUES
  ('COC[C@H](NC(=O)c1cnc(C)s1)C(=O)N[C@@H](COC)C(=O)N[C@@H](Cc1ccccc1)C(=O)[C@@]1(C)CO1', 0.123),
  ('N#CSc1cc(SC#N)c(N)nc1N', 1.06),
  ('COC(=O)[C@H](Cc1ccccc1)NC(=O)[C@@H](N)CC(=O)O', 1.09),
  ('CN(C)C(=S)NN=C(c1ccccn1)c1ccccn1', 0.265),
  ('COc1nc(N)nc2c1ncn2[C@@H]1O[C@H](CO)[C@@H](O)[C@@H]1O', 1.1);

Input: What measured relative cell viability goes with CCn1c(N)c(C(=O)NC)c(=O)c2ccc(C#CC(C)(O)COC)nc21 (centres undefined) ?
Output: 0.951

Input: Which relative cell viability is reported for this compound? CC(C)C[C@H](NC(=O)[C@H](Cc1ccccc1)NC(=O)c1cnccn1)B(O)O
Output: 0.329

Input: I would be grateful if you could share the reported relative cell viability for O=C(Nc1cc(C(F)(F)F)ccc1N1CCCCC1)c1ccncc1 .
Output: 1.07

----------
# System: Hep3B
# Assay Comment: relative cell viability (CellTiter-Glo), compound alone (fraction); higher = more viable cells (less growth inhibition)
# Condition Notes: cabozantinib 0 µM; 4 days
Counter-ions that a name gives are not always drawn. In all, about 1,900 compounds were measured (“relative cell viability (CellTiter-Glo), compound alone”: median about 1, lowest 2% from about 0.16 on). This excerpt belongs to a sample that is enriched for the lowest values.
Quick reference: relative cell viability of the listed items.
Form rule: numeric answer, no unit written next to it.

// known answers, use as guide
INSERT INTO measurements (molecule, test_value) VALUES
  ('Cc1cc(-c2ccc(CC(=O)Nc3ccc(-c4cccnc4)cc3)cc2)ccn1', 1.27),
  ('O=C(c1cncc(Br)c1)N1CCC(N2CCCC2)CC1', 1.03),
  ('O=C1c2c(O)ccc(O)c2C(=O)c2c(NCCNCCO)ccc(NCCNCCO)c21 [Mitoxantrone HCl]', 0.0676);

Input: Requested read-out: relative cell viability. Entry: C[C@]1(c2nc3c(C(N)=O)cccc3[nH]2)CCCN1
Output: 1.02

Input: Fill blank: measured relative cell viability of the molecule C/C(=C\c1ccc(C(=O)O)cc1)c1ccc2c(c1)C(C)(C)CCC2(C)C is ____.
Output: 1.11

----------
# Test system: Hep3B
# Assay Comment: relative cell viability (CellTiter-Glo), compound alone (fraction); higher = more viable cells (less growth inhibition)
# Condition Notes: cabozantinib 0 µM; 4 days
Structures can show the parent of a compound that is named as a salt. Whole data set: some 1,900 compounds, median “relative cell viability (CellTiter-Glo), compound alone” near 1, cut for the lowest 2% near 0.16. The list comes from a sample in which the lowest values are over-represented; it also holds close analogues and randomly drawn compounds.
Note to self: use fulfilled only for relative cell viability readings below 0.9; a reading exactly at 0.9 still gets not fulfilled.

INSERT INTO results (compound, class) VALUES
  ('CC(C)(C)C(=O)Nc1ccc2c(c1)C(=O)C(=O)c1ccccc1-2', 'fulfilled'),
  ('COc1ccc(S(=O)(=O)N(C(C)=O)c2ccccc2/C=C/c2cc[n+]([O-])cc2)cc1', 'fulfilled'),
  ('Nc1nccc2c1ncn2C1C=C(CO)C(O)C1O (centres undefined)', 'not fulfilled'),
  ('COc1cccc2c1C(=O)c1c(O)c3c(c(O)c1C2=O)C[C@@](O)(C(C)=O)C[C@@H]3O[C@H]1C[C@H](N)[C@H](O)[C@H](C)O1 [Daunorubicin HCl]', 'fulfilled'),
  ('O=C(O)CCCc1c[nH]c2ccccc12', 'not fulfilled');

Input: Please indicate whether the reported relative cell viability of CCS(=O)(=O)N1CC(CC#N)(n2cc(-c3ncnc4[nH]ccc34)cn2)C1 is strictly below 0.9.
Output: not fulfilled

Input: Is relative cell viability strictly under 0.9 for the entry CC(=O)Nc1ccccc1 [Acetanilide] ?
Output: not fulfilled

----------
# relative cell viability values compiled below
# System: Hep3B
# Assay Comment: relative cell viability (CellTiter-Glo), compound alone (fraction); higher = more viable cells (less growth inhibition)
# Condition Notes: cabozantinib 0 µM; 4 days
In all, about 1,900 compounds were measured (“relative cell viability (CellTiter-Glo), compound alone”: median about 1, lowest 2% from about 0.16 on). Shown is part of a subset that was picked to be rich in the lowest values.
Respond numerically, and do not add a unit to the figure.

INSERT INTO results (molecule, test_value) VALUES
  ('C=C1C(=O)[C@]23[C@H](O)[C@H]1CC[C@H]2[C@@]12CO[C@]3(O)[C@@H](O)[C@@H]1C(C)(C)CC[C@@H]2O', 0.965);

Input: Would you kindly share the measured relative cell viability for Cc1cc2c(cc1CC(=O)c1sccc1S(=O)(=O)Nc1onc(C)c1Cl)OCO2 [Sitaxentan sodium] ?
Output: 1.18

Input: Look up relative cell viability for this molecule: COc1ccccc1S(=O)(=O)Nc1ccc2c(c1)CN(C)C(=O)N2
Output: 0.881

Input: Query: relative cell viability; subject: Cc1c(Cc2ccc3ccccc3n2)c2cc(F)ccc2n1CC(=O)O
Output: 1.08

Input: Name the recorded relative cell viability for CCOC(=O)n1ccn(C)c1=S .
Output: 1.02

----------
# Tested on: Hep3B
# Assay Comment: relative cell viability (CellTiter-Glo), compound alone (fraction); higher = more viable cells (less growth inhibition)
# Condition Notes: cabozantinib 0 µM; 4 days
The full ranking holds about 1,900 compounds; the median of “relative cell viability (CellTiter-Glo), compound alone” is about 1, and the lowest 2% start at about 0.16. The sample as a whole holds a higher share of the lowest values than the screen did.
// reported relative cell viability per item

Worked examples, 3 molecules total:
INSERT INTO measurements (chemical_string, readout_kind, test_value) VALUES
  ('O=C(COc1ccc(C(=O)c2ccccc2)cc1)NC1CCN(Cc2ccccc2)CC1', 'relative cell viability', 0.881),
  ('CC(C)(C)c1cc(/C=C(\C#N)C(N)=S)cc(C(C)(C)C)c1O', 'relative cell viability', 1.04),
  ('CN1CCN(c2ccc(Nc3cc(-c4cccc(-n5ccc6cc(C7CC7)cc(F)c6c5=O)c4CO)cn(C)c3=O)nc2)CC1', 'relative cell viability', 1.1);

Input: Quick one: relative cell viability of C=CC(=O)Nc1ccc2ncnc(Nc3cccc(Br)c3)c2c1 ?
Output: 1.48

Input: May I ask what relative cell viability has been recorded for CNC(=O)[C@H](Cc1c[nH]c2ccccc12)NC(=O)[C@@H](CC(=O)NO)CC(C)C ?
Output: 1.05

Input: Consider the molecule COc1cccc(C=NCCN=Cc2cccc(OC)c2[O-])c1[O-].[Cl-].[Mn+3] and give its measured relative cell viability.
Output: 1.04

Input: Look at this molecule and give its reported relative cell viability. CC[C@@H]1/C=C(\C)C[C@H](C)C[C@H](OC)[C@H]2O[C@@](O)(C(=O)C(=O)N3CCCC[C@H]3C(=O)O[C@H](/C(C)=C/[C@@H]3CC[C@@H](O)[C@H](OC)C3)[C@H](C)[C@@H](O)CC1=O)[C@H](C)C[C@@H]2OC
Output: 1.16
